Quick reference for growth inhibition among some compounds
# assay.comment: NCI Yeast Anticancer Drug Screen. Data for the rad50 strain (AID 155);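 also: 0% = growth of vehicle-only cultures of the same strain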
# measurement.parameters: S. cerevisiae rad50 strain growth inhibition; at 50.0 µM; stronger effect = higher value
Compounds without any hit were thinned out: in the full panel of roughly 79,000, 15% have a hit. Activity calls are given as the source filed them. Rule as the data show it: active = growth inhibition above about 70%; inactive = the rest.
assay.endpoint: growth inhibition

CCOc1ccccc1NC(=S)NC1CCCCC1 = -8.65% (inactive)
CCOc1ccc(/C=C\C(=O)O)cc1 = -1.9% (inactive)
C#CC(O)C(CC)CCCC (stereo unspecified) = -11.1% (inactive)
NNC(=Nc1ccccc1)SCc1ccccc1 = 3.05% (inactive)
CC(=O)n1cc(CS)c(=O)[nH]c1=O = -6.2% (inactive)
CCc1ccc2[nH]c(C(=O)O)cc2c1 = -15.4% (inactive)
CSc1ccc(C(=O)c2ccc(SC)cc2)cc1 = 5.65% (inactive)
C=CCNC(=S)NN(C)C = -42% (inactive)
Nc1nnc2nc(CC(=O)c3ccc(F)cc3)c(CC(=O)c3ccc(F)cc3)nn12 = -3.6% (inactive)
CCC1CCCC1=O (stereo unspecified) = -8.75% (inactive)
Cc1ccc(S(=O)(=O)N2CCC(C(=O)O)(c3ccccc3)CC2)cc1 = -14.9% (inactive)
COc1cc(-c2c(C)oc(C)c2C(C)=O)ccc1OCc1ccccc1 = 9.6% (inactive)
Cc1ccc(NC(=S)N2CCCC2)cc1 = 5.9% (inactive)
CCOC(=O)c1c(-c2ccccc2)nn(CC(N)=O)c1CO = -15.9% (inactive)
CCCCCCC(=O)CC(SCCS)c1ccc(Cl)c(Cl)c1 (stereo unspecified) = 4.65% (inactive)
COc1ccc(CCNC(=O)CC2CCN(Cc3ccccc3)CC2)cc1OC = 3.65% (inactive)
COC(=O)NC(C(F)(F)F)(C(F)(F)F)P1(=O)OCCCO1 = 54.5% (inactive)
CCOC(=O)C1CC(O)c2ccc(Cl)cc2N1 (stereo unspecified) = 5.45% (inactive)
CCCOC(=O)Nc1cccc(Cl)c1 = 49.5% (inactive)
[Cl][Pt+2][Cl].[NH-]c1ccc(CC(=O)O)cc1[NH-] = 48.4% (inactive)
CC(Nc1cc(Cl)ccc1C(=O)O)C(=O)O (stereo unspecified) = 0.9% (inactive)
CN(C)/N=C1/CCCCC1C(O)(c1ccccc1)c1ccccc1 (stereo unspecified) = -20.7% (inactive)
CC1(C)OC2(CC1C1(C)C=CC(=O)O1)CC1(O)C(CCC34CC13C(=O)OC4c1ccoc1)O2 (stereo unspecified) = 17% (inactive)
Cc1c(C(=O)CC2OC(=O)C(Cl)=C2Cl)c2ccccc2n1C(=O)Nc1ccc(Cl)cc1 (stereo unspecified) = 15.8% (inactive)
O=C1CCC2CN(C(=O)c3ccccc3)CCC2C1 (stereo unspecified) = 8.75% (inactive)
CC(C)(C)OC(=O)C1C(=O)CC(c2ccccc2)C1c1ccccc1 (stereo unspecified) = -3.05% (inactive)

---

# assay.comment: NCI Yeast Anticancer Drug Screen. Data for the mec2-1 strain (AID 157)
# measurement.parameters: S. cerevisiae mec2-1 strain, at 50.0 µM, stronger effect = higher value
This is part of a sample that, as a whole, favours compounds with a hit. Of some 79,000 tested, about 15% had one in any assay. Calls of active or inactive are those of the source. No stated cut-off is given here; in the data, active means growth inhibition above about 70%; inactive means the rest.
assay.endpoint: growth inhibition

CCOP(=O)(O)C(c1ccccc1)c1ccccc1 = 7.5% (inactive)
COC1(OC)N=C(N)C2(C#N)C(C)=C3NCN(C)N=C3C12C#N (configuration not stated) = 3.2% (inactive)
O=c1c2c(no[n+]2[O-])c2ccccc2n1-c1ccccc1 = 66% (inactive)
CCN(CC)C(CC(=O)c1ccccc1)C(=O)c1ccccc1 (configuration not stated) = 16.5% (inactive)
CCOC(=O)c1ccc(C(=N)N)cc1 = 2.2% (inactive)
CC1(C)Oc2ccc3c(=O)c(-c4ccccc4)c(-c4ccccc4)oc3c2C1C(=O)O (configuration not stated) = -1.35% (inactive)
COC(=O)[C@]1(C)CCCn2c(=O)n(-c3ccccc3)c(=O)n21 = 11.3% (inactive)
O=C(CCC(=O)OCCCl)OCCCl = -18.9% (inactive)
CC(=O)C(C(=O)C(=O)Nc1cc(Cl)c(Cl)cc1Cl)c1csc(N)n1 (configuration not stated) = -9.2% (inactive)
CNN=C(C)C = 3.8% (inactive)
CC(=O)Nc1ccc(NC(=O)c2ccccc2Cl)cc1 = -9.15% (inactive)
CCCC[N+](C)(C)CC[N+](C)(C)CCCC = -14.9% (inactive)

---

# assay.comment: NCI Yeast Anticancer Drug Screen. Data for the bub3 strain (AID 167)
# measurement.parameters: S. cerevisiae bub3 mutant strain, at 50.0 µM
This is part of a sample that, as a whole, favours compounds with a hit. Of some 79,000 tested, about 15% had one in any assay. The source made the active and inactive calls. No stated cut-off is given here; in the data, active means growth inhibition above about 70%; inactive means the rest.
Outcome codes: active, inactive

Nc1nnc(-c2ccc(Cl)cc2)o1 = inactive
CN(C)C(=N)N=C(N)N = inactive
O=S(=O)(O)CC(O)CSSCC(O)CS(=O)(=O)O (configuration not stated) = inactive
CC1=CC(=O)c2cccc(NC3=NCCO3)c21 = inactive
O=C(Nc1ccc(Cl)c([N+](=O)[O-])c1)Oc1ccc2ccccc2c1 = inactive
CN(C)c1cc(N(C)C)c2cc(C#N)ccc2n1 = inactive
COc1cc(C(C)=O)cc(OCc2ccccc2)c1OC = inactive
O=C1C=CC[C@H](/C=C/c2ccccc2)O1 = inactive
COc1cccc(NC(=O)CC(=O)N/N=C/c2ccc(N(CCC#N)CCC#N)c(I)c2)c1 = inactive
COc1ccc2c(c1)CCCN2 = inactive
CN(C)c1ccc(/C=C(\C#N)c2cccc(Br)c2)cc1 = inactive
O/N=C(/CC(O)(c1ccccc1)c1ccccc1)c1ccccc1 = inactive
O=C(O)C1(NO)CCCCC1 = inactive
COc1cccc(Oc2ccc(C)cc2)c1 = inactive
O=C(CC(=O)Nc1ccccc1)NNC(c1cc(N=Nc2ccc(Br)cc2)ccc1O)P(O)O (configuration not stated) = inactive
CC[P+](C)(C)c1ccccc1 = inactive
Cc1cc(OC(=O)Nc2cccc(Cl)c2C)ccc1[N+](=O)[O-] = inactive
O=S(=O)(O)c1ccc2cc(O)ccc2c1 = inactive
O=C1O/C(=C2/OC(=O)c3ccccc32)c2ccccc21 = inactive
COc1ccc(N(N=Nc2ccccc2)C(C)=O)cc1 = inactive
Cn1nnnc1NN(c1nnnn1C)C1C=CCC=C1 = inactive
O=[N+]([O-])c1cc2ccccc2nc1-c1ccccc1 = inactive
CC1OS(=O)OC1C (configuration not stated) = inactive
CCCCCCCCCCC/C=N\[N+](C)(C)C = active
CSC1=Nc2ccccc2N=C(c2ccccc2)C1 = inactive
CCOC(=O)/C(=C\c1ccccc1)NC(=O)c1ccccc1 = inactive
COC(=O)c1c2c(cc3c1CC1(Cc4cc5c(c(C=O)c4C1)CCC5)C3)CCC2 (configuration not stated) = inactive

---

# assay.comment: NCI Yeast Anticancer Drug Screen. Data for the mlh1 rad18 strain (AID 175)
# measurement.parameters: S. cerevisiae mlh1 rad18 strain growth inhibition; at 50.0 µM; stronger effect = higher value
Compounds without any hit were thinned out: in the full panel of roughly 79,000, 15% have a hit.
# growth inhibition per record follows
assay.endpoint: growth inhibition (%)

CC1=NOC(C)(O)/C1=N/O (stereo not drawn) = -21.3
C=C1CCCCCCCCC/C=C/1SCCCSC = -20.2
CC1CCCN(C(=O)Nc2ccccc2)C1 (stereo not drawn) = 1.15
CSc1nc(N(C)C)c2[nH]c(C)nc2n1 = 31.6
CSC(=S)Nc1nc2ccc(Cl)cc2s1 = 3.2
CCOC(=C[P+](c1ccccc1)(c1ccccc1)c1ccccc1)OCC = -36
COC1(c2ccc(C)cc2)c2cccc3cccc(c23)C1(O)c1ccc(C)cc1 (stereo not drawn) = 9.9
CCC(CC)(C(=O)O)C(=O)O = 5.8
CCOC(=O)c1ccc(N2C(=S)N(C(=O)c3ccccc3)C(=Nc3ccccc3)C2=Nc2ccccc2)cc1 = -37.4
O=C(O)/C=C/c1ccc(O)c(O)c1 = 7.65
O=C(Cl)CNS(=O)(=O)c1ccccc1 = 1.45
COc1ccc(C=Nc2ccc(C(=O)O)cc2)cc1 = -6.25
CC1(Cc2ccccc2)NC(=S)NC1=O (stereo not drawn) = -7.35

---

# assay.comment: NCI Yeast Anticancer Drug Screen. Data for the sgs1 mgt1 strain (AID 161);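 also: 0% = growth of cultures given vehicle only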
# measurement.parameters: S. cerevisiae sgs1 mgt1 strain, at 50.0 µM, stronger effect = higher value
About 79,000 compounds went through this panel and 15% of them were active in at least one assay; those are over-represented in the sample as a whole.
assay.endpoint: growth inhibition (%)

NNC(=O)CC(=O)N(C(=O)/C=C/c1ccccc1)c1ccc(Cl)cc1 = 15.1
C=CCOc1cc2c(cc1C(C)c1ccc(OCC)c(C)c1)OCO2 (stereo unspecified) = -4.85
CCCCCCCC(=O)CC(C)C = 0.6
CC1OC(OC2C(Oc3cc(O)c4c(=O)cc(-c5ccc(O)cc5)oc4c3)OC(CO)C(O)C2O)C(O)C(O)C1O (stereo unspecified) = -14.2
N#C/C(=C/c1cccnc1)C(=O)c1ccccc1 = 1.3
CCOC(=O)N(CCCl)C(=O)C(C)C = -10.6
Cc1ncc([N+](=O)[O-])n1CCNC(=O)CCCCCn1ccnc1[N+](=O)[O-] = -9.45
COc1ccc(-c2cn3c([nH]c(=O)c4cc(Br)ccc43)c2C#N)cc1 = -3.7
C/C(=N\NC(=S)N1CCC(C2CCN(C(=S)N/N=C(\C)c3ccccn3)CC2)CC1)c1ccccn1 = 60.1
COC(=O)c1ccc(N=Nc2ncc(CC(NC(C)=O)C(=O)OC)[nH]2)cc1 (stereo unspecified) = 20.9
N#Cc1nc(Nc2cccc3ccccc23)sc1N = 20.9
